These entries and their values trace back to the supplement of paper PMC9112550.

Measured shrunken log2 fold change accompanies every entry in the list below.
- Test system: Escherichia coli TOP10;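 also: peptides expressed intracellularly from a pBAD plasmid library in pooled LB shake-flask culture, induced with 0.3% L-arabinose, DNA abundance read by NGS, three biological replicates, DESeq2 with apeglm shrinkage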
- Protocol notes: shrunken log2 fold change of peptide-encoding DNA abundance (4.5 h post-induction vs induction); higher = less antimicrobial activity (less host growth inhibition)
- Experimental conditions: time post-induction: 4.5 h; library: site-saturation at positions 5, 18, 19, 20
Measurement type: shrunken log2 fold change

RRIRDRPPRLPRPRPRPMSSPRP :: 0.0508
RRIRIRPPRLPRPRPRPVCYPRP :: -0.633
RRIRYRPPRLPRPRPRPAIGPRP :: -0.105
RRIRRRPPRLPRPRPRPEHCPRP :: -0.00244
RRIRWRPPRLPRPRPRPNYMPRP :: -0.385
RRIRERPPRLPRPRPRPRPAPRP :: 0.434
RRIRKRPPRLPRPRPRPDDIPRP :: 0.0454
RRIRWRPPRLPRPRPRPYNIPRP :: -0.243
RRIRSRPPRLPRPRPRPRWPPRP :: 0.553
RRIRDRPPRLPRPRPRPPNGPRP :: 0.0163
RRIRHRPPRLPRPRPRPDEAPRP :: -0.0728
RRIRPRPPRLPRPRPRPNGNPRP :: -0.144
RRIRSRPPRLPRPRPRPLYYPRP :: -0.547
RRIRSRPPRLPRPRPRPYVYPRP :: -0.852
RRIRDRPPRLPRPRPRPCWRPRP :: 0.101
